- Protocol notes: Hemolytic activity in mouse RBC at […] ug/ml after 1 hr relative to control
- Assay type: ADME, cell-based, Erythrocyte
- Test context: red blood cells (erythrocytes), at 15.6 µg/mL, read-out: Activity
Measured hemolysis at 1 h, 15.6 ug/ml by item

Structure string: Fc1cccc(N/N=C/c2ccc(-c3cccc(/C=N/Nc4cccc(F)c4)c3)cc2)c1
hemolysis at 1 h, 15.6 ug/ml: 13.9%
--
Structure string: Fc1cccc(N/N=C/c2ccc(-c3ccc(/C=N/Nc4cccc(F)c4)cc3)cc2)c1
hemolysis at 1 h, 15.6 ug/ml: 7.7%
--
Structure string: COc1ccc(N/N=C/c2ccc(-c3cccc(/C=N/Nc4ccc(OC)cc4)c3)cc2)cc1
hemolysis at 1 h, 15.6 ug/ml: 7.8%
--
Structure string: Fc1ccc(N/N=C/c2ccc(-c3ccc(/C=N/Nc4ccc(F)cc4)cc3)cc2)cc1
hemolysis at 1 h, 15.6 ug/ml: 9%
--
Structure string: C/C(=N\Nc1ccc(F)cc1)c1ccc(-c2ccc(/C(C)=N/Nc3ccc(F)cc3)cc2)cc1
hemolysis at 1 h, 15.6 ug/ml: 7.4%

---

- Protocol notes: Selectivity index, ratio of compound concentration showing <20 to <25% hemolysis in mouse RBC to MIC for Candida parapsilosis ATCC 22019
- Format: toxicity
- Test context: red blood cells (erythrocytes), read-out: Selectivity Index
Endpoint name: selectivity ratio

Structure string: C(=N\Nc1ccccc1)/c1ccc(-c2ccc(/C=N/Nc3ccccc3)cc2)cc1
Endpoint name: selectivity ratio
Result: 1 to 32
//
Structure string: C(=N\Nc1ccccc1)/c1ccc(-c2cccc(/C=N/Nc3ccccc3)c2)cc1
Endpoint name: selectivity ratio
Result: 1 to 32

---

- Protocol notes: Selectivity index, ratio of compound concentration showing <20 to <25% hemolysis in mouse RBC to MIC for fluconazole/ITC-resistant Candida albicans ATCC MYA-1237
- Type: toxicity
- Test context: red blood cells (erythrocytes), read-out: Selectivity Index
Each entry below carries its recorded selectivity ratio.
Endpoint name: selectivity ratio

Structure string: C(=N\Nc1ccccc1)/c1ccc(-c2ccc(/C=N/Nc3ccccc3)cc2)cc1
Result: 1 to 32
--
Structure string: C(=N\Nc1ccccc1)/c1ccc(-c2cccc(/C=N/Nc3ccccc3)c2)cc1
Result: 1 to 32

---

- Protocol notes: Selectivity index, ratio of compound concentration showing <20 to <25% hemolysis in mouse RBC to MIC for Aspergillus flavus ATCC MYA-3631
- Assay type: toxicity
- Test context: red blood cells (erythrocytes), read-out: Selectivity Index

Structure string: C(=N\Nc1ccccc1)/c1ccc(-c2cccc(/C=N/Nc3ccccc3)c2)cc1
selectivity ratio: 1 to 32
--
Structure string: C(=N\Nc1ccccc1)/c1ccc(-c2ccc(/C=N/Nc3ccccc3)cc2)cc1
selectivity ratio: 1 to 32

---

- Protocol notes: Hemolytic activity in mouse RBC at […] ug/ml after 1 hr relative to control
- Type: ADME, cell-based, Erythrocyte
- Test context: red blood cells (erythrocytes), read-out: Activity
Readings of hemolysis at 1 h, 0.975 ug/ml for the listed compounds
Endpoint name: hemolysis at 1 h, 0.975 ug/ml (%)

Compound: COc1ccc(N/N=C/c2ccc(-c3ccc(/C=N/Nc4ccc(OC)cc4)cc3)cc2)cc1
Endpoint name: hemolysis at 1 h, 0.975 ug/ml
Quantitative readout: 1.6
--
Compound: Fc1ccc(N/N=C/c2ccc(-c3cccc(/C=N/Nc4ccc(F)cc4F)c3)cc2)c(F)c1
Endpoint name: hemolysis at 1 h, 0.975 ug/ml
Quantitative readout: 0
--
Compound: COc1ccc(N/N=C/c2ccc(-c3cccc(/C=N/Nc4ccc(OC)cc4)c3)cc2)cc1
Endpoint name: hemolysis at 1 h, 0.975 ug/ml
Quantitative readout: 2.6
--
Compound: C[C@@H](c1ncncc1F)[C@](O)(Cn1cncn1)c1ccc(F)cc1F [VORICONAZOLE]
Endpoint name: hemolysis at 1 h, 0.975 ug/ml
Quantitative readout: 10.3
--
Compound: Fc1ccc(N/N=C/c2ccc(-c3ccc(/C=N/Nc4ccc(F)cc4)cc3)cc2)cc1
Endpoint name: hemolysis at 1 h, 0.975 ug/ml
Quantitative readout: 0
--
Compound: C/C(=N\Nc1ccc(F)cc1)c1ccc(-c2ccc(/C(C)=N/Nc3ccc(F)cc3)cc2)cc1
Endpoint name: hemolysis at 1 h, 0.975 ug/ml
Quantitative readout: 1.4
--
Compound: Fc1ccc(N/N=C/c2ccc(-c3cccc(/C=N/Nc4ccc(F)cc4)c3)cc2)cc1
Endpoint name: hemolysis at 1 h, 0.975 ug/ml
Quantitative readout: 0
